biological target: Cyclin-dependent kinase 1 (Homo sapiens, UniProt P06493)
Sequence (P06493 whole entry): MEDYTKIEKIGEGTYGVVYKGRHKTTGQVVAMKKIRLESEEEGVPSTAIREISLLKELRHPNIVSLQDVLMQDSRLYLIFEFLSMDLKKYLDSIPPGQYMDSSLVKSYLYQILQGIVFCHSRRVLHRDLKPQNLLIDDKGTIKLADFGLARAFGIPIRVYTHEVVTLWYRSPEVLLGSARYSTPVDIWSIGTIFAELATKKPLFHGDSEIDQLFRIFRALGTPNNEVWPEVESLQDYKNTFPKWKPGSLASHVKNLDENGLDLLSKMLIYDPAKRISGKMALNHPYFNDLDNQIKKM

>  <SMILES_STRUCTURE>
CN1CC[C@@H](c2c(O)cc(O)c3c(=O)cc(-c4ccc(C(F)(F)F)cc4Cl)oc23)[C@@H]1CO

>  <IC50>
< 100 nM

$$$$

----------
target: Mitogen-activated protein kinase 3 (Homo sapiens, UniProt P27361); assay: Inhibition of Erk-1 (unknown origin)
Sequence (P27361 whole entry): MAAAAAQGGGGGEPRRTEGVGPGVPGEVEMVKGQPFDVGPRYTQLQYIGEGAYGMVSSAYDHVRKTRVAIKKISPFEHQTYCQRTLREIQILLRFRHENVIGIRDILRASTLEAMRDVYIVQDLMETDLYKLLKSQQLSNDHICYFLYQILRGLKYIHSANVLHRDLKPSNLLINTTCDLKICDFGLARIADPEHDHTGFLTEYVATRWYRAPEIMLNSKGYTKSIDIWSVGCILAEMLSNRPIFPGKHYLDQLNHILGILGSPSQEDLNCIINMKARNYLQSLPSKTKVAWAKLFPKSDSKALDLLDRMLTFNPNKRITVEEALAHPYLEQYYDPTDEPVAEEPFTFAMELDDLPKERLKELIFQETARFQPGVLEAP
pIC50: −log10 of the molar value.

>  <SMILES_STRUCTURE>
CN1CC[C@H](c2c(O)cc(O)c3c(=O)cc(-c4ccccc4Cl)oc23)[C@H](O)C1

>  <pIC50>
4.80

$$$$

// provenance: ChEMBL document CHEMBL4368927
